Could you please report measured TGI for the items listed next?
# Test system: SF-268 CNS
# ASSAY SUMMARY: NCI tumour cell line growth inhibition, 48 h
Where a SMILES comes first, the peptide text is derived from it. [ ]: non-standard residue; d: D form.

*Q* Reported TGI for "CCc1cccc(C)c1NC(=O)C1=C(C)NC(C)=C(C(=O)Nc2c(C)cccc2CC)C1c1ccc2c(c1)OCO2" : what is it?
*A* 59.5 µM

*Q* Also, "CCOC(=O)/C(O)=C(/C(=O)OC)c1ccc(Cl)cc1" please.
*A* > 100 µM

*Q* Also, "O=S(=O)(c1cccc2c(I)cccc12)N1CCCNCC1" please.
*A* > 100 µM

*Q* Also, COC(=O)C12OC3CO[Si](C(C)C)(C(C)C)O[Si](C(C)C)(C(C)C)OC3C1Oc1nc(=O)ccn12 (configuration not stated) please.
*A* 24.6 µM

*Q* Also, "CN(Cc1cnc2c(N)nc(N)nc2n1)c1ccc(Cl)cc1" please.
*A* > 100 µM

*Q* Also, CC(C)C[C@H](NC(=O)[C@H](CC(C)C)NC(=O)[C@@H](Cc1c[nH]c2ccccc12)NC(=O)[C@H](Cc1ccccc1)NC(=O)[C@@H](Cc1c[nH]c2ccccc12)NC(=O)[C@H](CCC(N)=O)NC(=O)[C@H](CCC(N)=O)NC(=O)[C@H]1CCCN1C(=O)[C@@H](N)CCCCN)C(N)=O (H-K[dP]QQ[dW]F[dW]LL-NH2) please.
*A* > 100 µM

*Q* Also, CC1=C(C(=O)N[C@@H](CC(C)C)C(=O)O)N2C(=O)[C@@H](NC(=O)C(N)c3ccccc3)[C@H]2SC1 (some centres not stated) please.
*A* > 100 µM
